Tested on: Staphylococcus aureus
Assay: Antimicrobial activity against erythromycin-susceptible Staphylococcus aureus PU32 encoded by erm(A) gene
Type: functional
observed-property: MIC

Example cases with answers are listed next.
CC[C@H]1OC(=O)[C@H](C)[C@@H](O[C@H]2C[C@@](C)(OC)[C@@H](O)[C@H](C)O2)[C@H](C)[C@@H](O[C@@H]2O[C@H](C)C[C@H](N(C)C)[C@H]2O)[C@](C)(O)C[C@@H](C)CN(C)[C@H](C)[C@@H](O)[C@]1(C)O ... 64 µg/mL
CC[C@H]1OC(=O)[C@H](C)[C@@H](O[C@H]2C[C@@](C)(OC)[C@@H](O)[C@H](C)O2)[C@H](C)[C@@H](O[C@@H]2O[C@H](C)C[C@H](N(C)C)[C@H]2O)[C@](C)(OC)C[C@@H](C)C(=O)[C@H](C)[C@@H](O)[C@]1(C)O ... 128 µg/mL
CC[C@H]1OC(=O)[C@H](C)[C@@H](O/C=C\Cc2cncc3ccccc23)[C@H](C)[C@@H](O[C@@H]2O[C@H](C)C[C@H](N(C)C)[C@H]2O)[C@](C)(OC)C[C@@H](C)/C(=N\OCc2ccccc2Cl)[C@H](C)[C@H]2OC(=O)O[C@@]21C ... 32 µg/mL

Could you now consider this next molecule?
Which value of MIC has been reported for `CC[C@H]1OC(=O)[C@H](C)[C@@H](OC/C=C/c2cncc3ccccc23)[C@H](C)[C@@H](O[C@@H]2O[C@H](C)C[C@H](N(C)C)[C@H]2O)[C@](C)(OC)C[C@@H](C)/C(=N\OCc2ccccc2Cl)[C@H](C)[C@H]2OC(=O)O[C@@]21C` in the records?
64 µg/mL
